Tested on: DBTRG-05MG;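 note: cell viability assay measuring growth inhibition of human DBTRG-05MG cells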
Experiment: cells
Assay type: functional, cell-based, Homo sapiens
Details: dbtrg-05mg
Description: SANGER: Inhibition of human DBTRG-05MG cell growth in a cell viability assay.
observed-property: IC50 (µM)
Report the figure in µM without appending any unit label.

-- ask Annotate the sequence BLEOMYCIN with its measured IC50.
-- reply 5.67

====

Test system: MES-SA;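 note: growth inhibition of human MES-SA cells, read out with a cell viability assay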
Assay: cells
Format: functional, cell-based, Homo sapiens
Settings: Homo sapiens, MES-SA
Description: SANGER: Inhibition of human MES-SA cell growth in a cell viability assay.
Where a name gives a salt, the structure may show the parent alone.
observed-property: IC50 (nM)
Report the figure in nM without appending any unit label.

-- ask Annotate the compound COC1=CC(c2cc3ccccc3[nH]2)=N/C1=C\c1[nH]c(C)cc1C [OBATOCLAX MESYLATE] with its measured IC50.
-- reply 405

-- ask Annotate the compound Oc1ccc2ccccc2c1SSc1c(O)ccc2ccccc12 with its measured IC50.
-- reply 23900

====

System: HT
Assay: cells
Type: functional, cell-based, Homo sapiens
Conditions: Homo sapiens, HT
Description: SANGER: Inhibition of human HT cell growth in a cell viability assay.
observed-property: IC50

-- ask Annotate the compound COc1cc(-c2nn([C@H]3CC[C@H](N4CCN(C(C)=O)CC4)CC3)c3ncnc(N)c23)ccc1NC(=O)c1cc2ccccc2n1C with its measured IC50.
-- reply > 5.12 µM

-- ask Annotate the compound CC(C)CCN1c2nc(Nc3cc(F)c(O)c(F)c3)ncc2N(C)C(=O)C1C (stereo unspecified) with its measured IC50.
-- reply > 5 µM

-- ask Annotate the compound Cc1cc([N+](=O)[O-])ccc1NS(=O)(=O)c1cc(Cl)ccc1Cl with its measured IC50.
-- reply 2.75 µM

-- ask Annotate the compound COc1cc2ncn(-c3cc(OCc4ccccc4C(F)(F)F)c(C(N)=O)s3)c2cc1OC [GW843682X] with its measured IC50.
-- reply 0.128 µM

-- ask Annotate the compound Nc1ccn([C@@H]2O[C@H](CO)[C@@H](O)C2(F)F)c(=O)n1 with its measured IC50.
-- reply > 1.02 µM

-- ask Annotate the compound C#Cc1cccc(Nc2ncnc3cc(OCCOC)c(OCCOC)cc23)c1 with its measured IC50.
-- reply > 2 µM

-- ask Annotate the compound O=C(O)c1ccc(-c2c[nH]c3ncc(-c4ccccc4)cc23)cc1C1CCCC1 with its measured IC50.
-- reply > 16 µM

-- ask Annotate the compound OCCCNc1cc(-c2ccnc(Nc3cccc(Cl)c3)n2)ccn1 with its measured IC50.
-- reply 0.0662 µM

-- ask Annotate the compound Cn1cnc2c(F)c(Nc3ccc(Br)cc3Cl)c(C(=O)NOCCO)cc21 with its measured IC50.
-- reply > 4 µM

-- ask Annotate the compound CCC/C=C/C=C/C(=O)O[C@H]1/C(=C/C(=O)OC)C[C@H]2C[C@H]([C@@H](C)O)OC(=O)C[C@H](O)C[C@@H]3C[C@H](OC(C)=O)C(C)(C)[C@](O)(C[C@@H]4C/C(=C/C(=O)OC)C[C@H](/C=C/C(C)(C)[C@]1(O)O2)O4)O3 with its measured IC50.
-- reply > 0.008 µM

-- ask Annotate the compound C=C(c1ccc(C(=O)O)cc1)c1cc2c(cc1C)C(C)(C)CCC2(C)C with its measured IC50.
-- reply > 8 µM

====

Give IC50 for every item shown.
Tested on: NCI-H1395
Experiment: cells
Type: functional, cell-based, Homo sapiens
Conditions: Homo sapiens, NCI-H1395
Description: SANGER: Inhibition of human NCI-H1395 cell growth in a cell viability assay.

-- ask Name the value of IC50 reported for COc1cc(-c2nn([C@H]3CC[C@H](N4CCN(C(C)=O)CC4)CC3)c3ncnc(N)c23)ccc1NC(=O)c1cc2ccccc2n1C when tested on NCI-H1395.
-- reply > 5120 nM

-- ask Name the value of IC50 reported for CS(=O)(=O)c1ccc(C(=O)Nc2ccc(Cl)c(-c3ccccn3)c2)c(Cl)c1 [VISMODEGIB] when tested on NCI-H1395.
-- reply > 10000 nM

-- ask Name the value of IC50 reported for COc1cc2ncn(-c3cc(OCc4ccccc4C(F)(F)F)c(C(N)=O)s3)c2cc1OC [GW843682X] when tested on NCI-H1395.
-- reply > 256 nM

-- ask Name the value of IC50 reported for CC(C)c1ccccc1Cc1cc(C(=O)Nc2ccc(S(=O)(=O)c3ccccc3C(C)(C)C)cc2)c(O)c(O)c1O when tested on NCI-H1395.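 Note: cell viability assay read-out quantifying reduced proliferation of human NCI-H1395 cells.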
-- reply 612 nM
